Collected response (photon counts) values appear next to each entry.
Molecular target: T1, biotin-MBP-tagged AtHAB1 (residues 172-511), Q9CAJ0
T1 chain: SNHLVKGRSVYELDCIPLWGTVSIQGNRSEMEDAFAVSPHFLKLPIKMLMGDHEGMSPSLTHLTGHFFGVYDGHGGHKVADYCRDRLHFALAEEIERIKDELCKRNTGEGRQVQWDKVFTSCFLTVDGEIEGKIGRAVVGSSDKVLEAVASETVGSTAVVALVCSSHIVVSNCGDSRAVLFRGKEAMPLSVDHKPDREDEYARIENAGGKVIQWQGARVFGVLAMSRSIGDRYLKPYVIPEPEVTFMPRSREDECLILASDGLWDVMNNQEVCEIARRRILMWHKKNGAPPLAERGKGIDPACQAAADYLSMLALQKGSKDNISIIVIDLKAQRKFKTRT
Experiment: AlphaScreen
Conditions: chain shown with the change; ABA (10 μM); parent: est. 12000; read off a plot
Just the number, please, no unit after it.

H6-SUMO-tagged FePYR1 R133A (protein) MEQQPAAAEPEVPAGLGLTAAEYAELQPTVEAYHRYAVGPGQCSSLVAQRIEAPAAAVWAIVRRFDCPQVYKHFIRSCALRPDPDAGDELRPGRLREVSVISGLPASTSTERLDLLDDARRAFGFTITGGEHALANYRSVTTVSELAPAAPAKICTVVLESYVVDVPEGNSEEDTRLFADTVVRLNLQKLKSLAEANATSAAAQATPPPQAE = 2300
H6-SUMO-tagged FePYR1 P105A (protein) MEQQPAAAEPEVPAGLGLTAAEYAELQPTVEAYHRYAVGPGQCSSLVAQRIEAPAAAVWAIVRRFDCPQVYKHFIRSCALRPDPDAGDELRPGRLREVSVISGLAASTSTERLDLLDDARRAFGFTITGGEHRLANYRSVTTVSELAPAAPAKICTVVLESYVVDVPEGNSEEDTRLFADTVVRLNLQKLKSLAEANATSAAAQATPPPQAE = 3300
H6-SUMO-tagged FePYR1 E131A (protein) MEQQPAAAEPEVPAGLGLTAAEYAELQPTVEAYHRYAVGPGQCSSLVAQRIEAPAAAVWAIVRRFDCPQVYKHFIRSCALRPDPDAGDELRPGRLREVSVISGLPASTSTERLDLLDDARRAFGFTITGGAHRLANYRSVTTVSELAPAAPAKICTVVLESYVVDVPEGNSEEDTRLFADTVVRLNLQKLKSLAEANATSAAAQATPPPQAE = 8000

INPUT: Entry H6-SUMO-tagged FePYR1 S102A (protein) MEQQPAAAEPEVPAGLGLTAAEYAELQPTVEAYHRYAVGPGQCSSLVAQRIEAPAAAVWAIVRRFDCPQVYKHFIRSCALRPDPDAGDELRPGRLREVSVIAGLPASTSTERLDLLDDARRAFGFTITGGEHRLANYRSVTTVSELAPAAPAKICTVVLESYVVDVPEGNSEEDTRLFADTVVRLNLQKLKSLAEANATSAAAQATPPPQAE : reported response (photon counts) = ?
OUTPUT: 3000

Each recorded value in this set is attributed to paper PMC5656587.
